- tested system: 5-hydroxytryptamine receptor 1B (Homo sapiens, UniProt P28222)
- Sequence (P28222 whole entry): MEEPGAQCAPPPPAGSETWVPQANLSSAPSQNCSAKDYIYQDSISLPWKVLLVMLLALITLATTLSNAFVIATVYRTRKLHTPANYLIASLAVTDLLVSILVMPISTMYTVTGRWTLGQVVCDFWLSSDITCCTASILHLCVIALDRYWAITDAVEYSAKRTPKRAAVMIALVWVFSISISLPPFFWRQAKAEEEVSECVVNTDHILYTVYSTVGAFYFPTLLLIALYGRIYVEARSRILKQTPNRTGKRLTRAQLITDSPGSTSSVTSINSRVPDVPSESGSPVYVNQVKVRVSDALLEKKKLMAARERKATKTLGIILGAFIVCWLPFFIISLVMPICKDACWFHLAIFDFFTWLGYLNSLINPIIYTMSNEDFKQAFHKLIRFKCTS
- test details: Intrinsic activity at human 5HT1B receptor expressed in CHO cells by [35S]GTPgammaS binding assay
- Format: functional, cell-based
assay readout: Intrinsic activity

1. Cc1ccc2c(OCCN3CCC(Cc4cccc(N5CCCN(C)CC5)c4)CC3)cccc2n1
0.3
2. Cc1ccc2c(OCCN3CCC(Cc4cccc(C5CCN(C)CC5)c4)CC3)cccc2n1
0.3
3. Cc1ccc2c(OCCN3CCC(Cc4cccc(N5CCN[C@@H](C)C5)c4)CC3)cccc2n1
0.3
4. Cc1ccc2c(OCCN3CCC(Cc4cccc(N5CCN[C@H](C)C5)c4)CC3)cccc2n1
0.3
5. Cc1ccc2c(OCCN3CCC(Cc4cccc(N5CCN(C)CC5)c4)CC3)cccc2n1
0.3

I: Cc1ccc2c(OCCN3CCC(Cc4cccc(NS(C)(=O)=O)c4)CC3)cccc2n1
II: Cc1ccc2c(OCCN3CCC(Cc4cccc(NC(=O)CN(C)C)c4)CC3)cccc2n1
III: Cc1ccc2c(OCCN3CCC(Cc4cccc(N5CCCCC5)c4)CC3)cccc2n1
Which order do these items take when sorted by rising Intrinsic activity? List them. Form entry: labels listed in requested order.
II, I, III

* * *

- tested system: 5-hydroxytryptamine receptor 1B (Homo sapiens)
assay readout: Ki (nM)

Past entries and their recorded results:
1. Cc1ccc2c(OCCN3CCC(Cc4cccc(N5CCCC5)c4)CC3)cccc2n1
39.8
2. Cc1ccc2c(OCCN3CCC(Cc4cccc(N5CCOCC5)c4)CC3)cccc2n1
126
3. Cc1ccc2c(OCCN3CCC(Cc4cccc(N5C[C@@H](C)O[C@@H](C)C5)c4)CC3)cccc2n1
158
4. Cc1ccc2c(OCCN3CCC(Cc4cccc(N5C[C@@H](C)N[C@@H](C)C5)c4)CC3)cccc2n1
3.98
5. Cc1ccc2c(OCCN3CCC(Cc4cccc(N5CCN(C)CC5)c4)CC3)cccc2n1
6.31

a: Cc1ccc2c(OCCN3CCC(Cc4cccc(N5CCCN(C)CC5)c4)CC3)cccc2n1
b: Cc1ccc2c(OCCN3CCC(Cc4cccc(-c5ccoc5)c4)CC3)cccc2n1
Hi, I'm comparing a with b and wondering which one has the bigger number for Ki. Any idea? Respond with the label that goes with your answer.
b

* * *

- test details: Metabolic stability in human microsomes assessed as intrinsic clearance
- Format: ADME, Microsome
assay readout: CLint scaled (mL/min/kg)
Report only the number, with the unit mL/min/kg understood.

Which CLint scaled value is on record for "Cc1ccc2c(OCCN3CCC(Cc4cccc(N5CCN(C)CC5)c4)CC3)cccc2n1" ?
1.6

* * *

- test details: Half life in rat at 1 mg/kg, iv
- Format: ADME, organism-based
- Set-up: dose 1 mg/kg, route intravenous
- experimental context: in vivo
assay readout: half-life (h)

1: Cc1ccc2c(OCCN3CCC(Cc4cccc(N5CCN(C)CC5)c4)CC3)cccc2n1
2: Cc1ccc2c(OCCN3CCC(Cc4cccc(C5CCN(C)CC5)c4)CC3)cccc2n1
Just tell me: smaller half-life value, 1 or 2 ? Respond with the label that goes with your answer.
1

* * *

- test details: Volume of distribution at steady state rat
- Format: ADME, organism-based
- experimental context: in vivo, read-out: Vdss
assay readout: Vd (L/kg)

P: Cc1ccc2c(OCCN3CCC(Cc4cccc(C5CCN(C)CC5)c4)CC3)cccc2n1
Q: Cc1ccc2c(OCCN3CCC(Cc4cccc(N5CCN(C)CC5)c4)CC3)cccc2n1
Just tell me: smaller Vd value, P or Q ? Respond with the label that goes with your answer.
Q
